- EXPERIMENTAL_SYSTEM: PADI4 (Homo sapiens, UniProt Q9UM07)
- Construct: His6; made in house
- Sequence (Q9UM07 whole entry): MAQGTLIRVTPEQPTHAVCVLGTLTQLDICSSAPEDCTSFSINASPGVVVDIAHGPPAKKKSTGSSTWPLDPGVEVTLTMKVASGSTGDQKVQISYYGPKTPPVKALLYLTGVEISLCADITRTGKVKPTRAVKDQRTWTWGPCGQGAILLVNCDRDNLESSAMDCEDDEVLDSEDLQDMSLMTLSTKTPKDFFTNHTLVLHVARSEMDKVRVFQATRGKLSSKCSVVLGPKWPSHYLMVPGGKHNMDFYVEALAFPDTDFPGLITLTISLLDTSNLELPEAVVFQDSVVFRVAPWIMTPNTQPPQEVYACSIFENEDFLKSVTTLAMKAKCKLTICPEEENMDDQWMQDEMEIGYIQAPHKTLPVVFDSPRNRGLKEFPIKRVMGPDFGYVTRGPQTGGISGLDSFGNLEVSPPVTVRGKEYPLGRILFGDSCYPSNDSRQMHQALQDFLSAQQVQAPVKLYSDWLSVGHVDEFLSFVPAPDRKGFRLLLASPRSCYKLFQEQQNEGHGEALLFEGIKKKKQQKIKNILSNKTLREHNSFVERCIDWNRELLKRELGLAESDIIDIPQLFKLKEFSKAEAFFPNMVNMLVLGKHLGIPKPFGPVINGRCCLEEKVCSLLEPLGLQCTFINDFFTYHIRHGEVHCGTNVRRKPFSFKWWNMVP
- EXPERIMENT_DESCRIPTION: Incubation time-dependent COLDER assay IC50(t), Krippendorff fit
- Type: biochemical
- CONDITION_CONTEXT: Krippendorff fit of IC50 vs time
Where a SMILES comes first, the peptide text is derived from it. Bridges are numbered along the chain shown (N, C = ends). [ ]: non-standard residue; d: D form. Orn(fluoroacetimidoyl) = N=C(CF)NCCC[C@H](N)C(=O)O
EXPERIMENTAL_ENDPOINT: kinact (s⁻¹)

[[record]]
compound = "CC(C)[C@@H]1NC(=O)[C@@H](Cc2ccc(O)cc2)NC(=O)CSC[C@@H](C(=O)NCC(N)=O)NC(=O)[C@H](Cc2ccc(O)cc2)NC(=O)[C@H](CCCCN)NC(=O)[C@H](Cc2c[nH]c3ccccc23)NC(=O)[C@H](CCC(=O)O)NC(=O)[C@H](CCCCN)NC(=O)[C@H](CCCNC(=N)CF)NC(=O)[C@H](CO)NC(=O)[C@H](Cc2ccc(O)cc2)NC1=O [cP4_7, yVYS(2)KEWKYCG] ({CH2CO}-[dY]VYS[Orn(fluoroacetimidoyl)]KEWKYCG-NH2; thioether N-11)"
experimental_system = "PADI4 (Homo sapiens, UniProt Q9UM07)"
observed_measurement = 0.00128

[[record]]
compound = "N=C(N)NCCC[C@@H]1NC(=O)[C@H](CCCCN)NC(=O)[C@H](CC(N)=O)NC(=O)[C@H](Cc2ccccc2)NC(=O)[C@H](CC(=O)O)NC(=O)[C@H](Cc2c[nH]c3ccccc23)NC(=O)[C@H](CC(N)=O)NC(=O)[C@H](CCCNC(=N)CF)NC(=O)[C@H](Cc2ccc(O)cc2)NC(=O)[C@H](Cc2c[nH]c3ccccc23)NC(=O)[C@@H](Cc2ccc(O)cc2)NC(=O)CSC[C@@H](C(=O)NCC(N)=O)NC1=O [cP4_10, yWY(2)NWDFNKRCG] ({CH2CO}-[dY]WY[Orn(fluoroacetimidoyl)]NWDFNKRCG-NH2; thioether N-12)"
experimental_system = "PADI4 (Homo sapiens, UniProt Q9UM07)"
observed_measurement = 0.00217

[[record]]
compound = "CC(C)C[C@@H]1NC(=O)[C@H](CCCCN)NC(=O)[C@H](CO)NC(=O)[C@H](CO)NC(=O)[C@H](Cc2ccc(O)cc2)NC(=O)[C@H](Cc2c[nH]cn2)NC(=O)[C@H](CCCNC(=N)CF)NC(=O)[C@H](CC(=O)O)NC(=O)[C@H](CC(C)C)NC(=O)[C@@H](Cc2ccc(O)cc2)NC(=O)CSC[C@@H](C(=O)NCC(N)=O)NC(=O)[C@H](Cc2ccc(O)cc2)NC1=O [cP4_15, yLD(2)HYSSKLYCG] ({CH2CO}-[dY]LD[Orn(fluoroacetimidoyl)]HYSSKLYCG-NH2; thioether N-12)"
experimental_system = "PADI4 (Homo sapiens, UniProt Q9UM07)"
observed_measurement = 0.00283

[[record]]
compound = "CC[C@H](C)[C@H](NC(=O)[C@H](Cc1c[nH]c2ccccc12)NC(=O)[C@H](CCC(=O)O)NC(=O)[C@@H]1CSCC(=O)N[C@H](Cc2ccc(O)cc2)C(=O)N[C@@H](C(C)C)C(=O)N[C@@H](Cc2ccc(O)cc2)C(=O)N[C@@H](CCCNC(=N)CF)C(=O)N[C@@H](CC(=O)O)C(=O)N1)C(=O)N[C@@H](CC(N)=O)C(=O)N[C@@H](CCCNC(=N)N)C(=O)N[C@@H](C)C(=O)NCC(N)=O [cP4_165, yVY(2)DCEWINRAG] ({CH2CO}-[dY]VY[Orn(fluoroacetimidoyl)]DCEWINRAG-NH2; thioether N-6)"
experimental_system = "PADI4 (Homo sapiens, UniProt Q9UM07)"
observed_measurement = 0.00267

[[record]]
compound = "N=C(N)NCCC[C@@H]1NC(=O)[C@H](Cc2ccc(O)cc2)NC(=O)[C@H](Cc2c[nH]cn2)NC(=O)[C@H](CCCNC(=N)CF)NC(=O)[C@H](CC(=O)O)NC(=O)[C@H](CCCNC(=N)N)NC(=O)[C@@H](Cc2ccc(O)cc2)NC(=O)CSC[C@@H](C(=O)NCC(N)=O)NC(=O)[C@H](Cc2ccc(O)cc2)NC(=O)[C@H](CCCCN)NC(=O)[C@@H]2CCCN2C(=O)[C@H](Cc2c[nH]cn2)NC1=O [PADI4_3_H4(2), yRD(2)HYRHPKYCG] ({CH2CO}-[dY]RD[Orn(fluoroacetimidoyl)]HYRHPKYCG-NH2; thioether N-12)"
experimental_system = "PADI4 (Homo sapiens, UniProt Q9UM07)"
observed_measurement = 0.00267

[[record]]
compound = "N=C(N)NCCC[C@@H]1NC(=O)[C@H](CCCNC(=N)CF)NC(=O)[C@H](CC(=O)O)NC(=O)[C@H](Cc2ccc(O)cc2)NC(=O)[C@H](CCCCN)NC(=O)[C@H](CO)NC(=O)[C@@H](Cc2ccc(O)cc2)NC(=O)CSC[C@@H](C(=O)NCC(N)=O)NC(=O)[C@H](CC(=O)O)NC(=O)[C@H](CCCNC(=N)N)NC(=O)[C@@H]2CCCN2C(=O)[C@H](CO)NC1=O [cP4_4, ySKYD(2)RSPRDCG] ({CH2CO}-[dY]SKYD[Orn(fluoroacetimidoyl)]RSPRDCG-NH2; thioether N-12)"
experimental_system = "PADI4 (Homo sapiens, UniProt Q9UM07)"
observed_measurement = 0.00217

